Biological target: Aminopeptidase N (Sus scrofa, UniProt P15145)
Sequence (P15145 whole entry): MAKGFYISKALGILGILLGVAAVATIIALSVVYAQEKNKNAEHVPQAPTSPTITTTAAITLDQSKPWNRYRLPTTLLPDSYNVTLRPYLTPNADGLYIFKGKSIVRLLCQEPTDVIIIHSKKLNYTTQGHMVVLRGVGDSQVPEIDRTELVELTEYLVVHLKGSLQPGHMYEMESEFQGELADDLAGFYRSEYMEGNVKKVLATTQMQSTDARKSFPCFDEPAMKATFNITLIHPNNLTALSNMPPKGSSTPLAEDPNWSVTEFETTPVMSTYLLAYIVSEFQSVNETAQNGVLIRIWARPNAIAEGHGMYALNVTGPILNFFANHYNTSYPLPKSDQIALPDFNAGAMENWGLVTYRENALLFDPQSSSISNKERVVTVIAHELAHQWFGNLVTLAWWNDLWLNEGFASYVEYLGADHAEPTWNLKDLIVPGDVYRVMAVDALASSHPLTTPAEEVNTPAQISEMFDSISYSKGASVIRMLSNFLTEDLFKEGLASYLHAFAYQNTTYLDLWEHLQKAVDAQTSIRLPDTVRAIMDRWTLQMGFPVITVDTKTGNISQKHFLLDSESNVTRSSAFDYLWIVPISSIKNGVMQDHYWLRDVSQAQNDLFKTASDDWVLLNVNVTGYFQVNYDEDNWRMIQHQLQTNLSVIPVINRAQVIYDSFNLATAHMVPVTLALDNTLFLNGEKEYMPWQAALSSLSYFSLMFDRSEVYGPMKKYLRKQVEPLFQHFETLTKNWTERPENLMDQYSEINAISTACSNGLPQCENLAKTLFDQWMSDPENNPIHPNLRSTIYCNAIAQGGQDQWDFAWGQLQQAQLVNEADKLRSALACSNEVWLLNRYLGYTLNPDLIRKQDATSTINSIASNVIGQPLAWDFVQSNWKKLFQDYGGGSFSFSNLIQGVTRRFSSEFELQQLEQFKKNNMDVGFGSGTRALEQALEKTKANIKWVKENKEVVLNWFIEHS
Experiment: Competitive inhibition of pig APN using L-leucine-p-nitroanilide as substrate by spectrophotometric analysis
Measured property: Ki (nM)
Numeric only. Scale: nM

N[C@H]1CCc2ccccc2[C@H](SCc2ccccc2)C1=O (racemic)    83

Task item: Missing value: Ki, Aminopeptidase N (Sus scrofa, UniProt P15145), entry N[C@H]1CCc2ccccc2[C@H](Sc2ccccc2)C1=O (racemic) . Fill in?
Reply: 60

Task item: Missing value: Ki, Aminopeptidase N (Sus scrofa, UniProt P15145), entry N[C@H]1CCc2ccccc2[C@@H](Sc2ccccc2)C1=O (racemic) . Fill in?
Reply: 60
